Cited source: patent US7026353B2

System: Streptococcus salivarius
EXPERIMENT DESCRIPTION: Screening against growth in NB, microplate reader, 24 hours
Type: cell-based
EXPERIMENTAL CONTEXT: 10 μg/ml, after 24 hr
PROPERTY NAME: % growth compared to the control value (%)
Entry rule: numbers only, all in %.

Hey, Streptococcus salivarius data for O=C1C=C(Br)/C(=C/Br)O1 [Compound 30] : % growth compared to the control value came out at 73

Hey, Streptococcus salivarius data for CCCC(F)C1=C(Br)/C(=C/Br)OC1=O (stereo not shown) [Compound 45] : % growth compared to the control value came out at 69

Hey, Streptococcus salivarius data for CCCCC1=C(Br)C(=CBr)OC1=O [Compound 2] : % growth compared to the control value came out at 86

Hey, Streptococcus salivarius data for CCCC(OC(C)=O)C1=C(Br)C(=CBr)OC1=O (stereo not shown) [Compound 4, reference compound] : % growth compared to the control value came out at 85
